Where do these numbers come from? They come from the supplement of paper PMC9732359.

What protein stability index was measured for each of the following?
# assay protocol: protein stability index of a GFP-peptide fusion (yeast GPS) (PSI 1-4); higher = more stable; sorted into four equal gates, so the index is relative within each strain
# conditions used: ubr1∆

Please look up its protein stability index: PNIADYITAKNNVVINF [PRP8]
1.26

Then PLDSKDENFASVSPAGP [SNF2] ?
2.99

Then this sequence: SASLHTRSLKYGKLRNG [RRP4]
2.82

* * *

# assay protocol: protein stability index of a GFP-peptide fusion (yeast GPS) (PSI 1-4); higher = more stable; sorted into four equal gates, so the index is relative within each strain
# conditions used: ubr1∆
Give yes when the value for protein stability index is at least 3. Give no when it is less.

Record IAAKLINSGLYSVLLES [YML103C/NUP188] ; criterion: protein stability index no lower than 3. Met?
no

Here is the next sequence: PLNDGFVDLVEHFLKLN [YML103C/NUP188]
no

Can you handle KVNPNIMNMIENVEKKE [SMC2] next?
no

What about HAKRKTVTSLDVVYALK [HHF1] ?
yes

Same question for ALCKNRKCQFRTPDSIS [POP1] please.
no

Now consider AVLSYYKVDAEGKVTKL [RPS31] and answer again.
yes

Input IPSPLSSTKPPGSVNSA [NUT1]
no

Same question for EHKQLVAEIVQNVISLG [RPC82] please.
no

Entry TKNLSILTSKVNAIKNE [DSN1] please
no

Request: ESHIDSRNNTLNVTPSK [SIR4]
no

Field entry: NKKSEENEMIKPMNKGQ [SWP82]
yes

Subsequent entry: DGLIAPGVRVSGEDVII [RPB2]
no

Now this one: QPSYNSAIIENAFRKEE [GAL11]
no

Now the sequence STLTLSDSEDSDAKEQH [ESC2]
no

Let us now turn to INYHQYISKAQNDQWSI [SSN2]
no

Same thing, different sequence: FKNTRETAQAINGWELT [RPL17A]
no

Cool, now GNIFADLLPNSFAKLVP [SMC2]
no

Can you check EKIDGMDVDSVKTTLVS [RPC82] next?
no

Try this sequence next: PKVPVSAAATPSLNKTI [GAL11]
no

Record: PLRGALATYGLTIDDLG [FAS2]
no

For IDIPLDEQAFYNKDKAE [RPC37] then?
yes

Query LSSIAERVRNFAVIYLC [DIB1] next
no

For SGAITFVNETPRVIEPV [PRP8] then?
no

Same for NLSIDEVAVPDRVAKVL [RPO31]
yes

Consider next the sequence PDVLLSRVINVVRAASS [RRP6] in the same way.
no

// same read-out, input: LNEAPFPEENIIDAKTR [MCD1]
yes

Could you do the same for NTLYTAIITDDLDTVLK [SRP72] , please?
no

* * *

# assay protocol: protein stability index of a GFP-peptide fusion (yeast GPS) (PSI 1-4); higher = more stable; sorted into four equal gates, so the index is relative within each strain
# conditions used: pdr5∆
measurement kind: protein stability index
Number, no unit, nothing else.

Can you share its protein stability index? I mean this sequence: TTAVEDEDDDLDEDDVN [RPB4]
3.27

Now try VHRDDPALVGKLRGDLR [SNF6] .
3.2

Let us now turn to HKMSMMAHRVKVIPYST [RPO21]
2.64

Same read-out for DKGLLPYAIMETANEIL [RPO31] ?
2.71

Subsequent entry: DTSDIIVDPTAEQLKIS [RRP46]
2.19

Try this sequence too: SREAVRHFGMGPHKGKA [RPL18A]
2.8

Could you do the same for PLNDGFVDLVEHFLKLN [YML103C/NUP188] , please?
1.63

Now consider SLTAEAMTAAEHGLHAP [CYT1] .
3.25

What do you have for LIRPSSKVIIKFLQVMQ [RPS22A] ?
1.82

Request: MIVYYKDAISFIKEIHK [YCS4]
1.84

Same question, CRKCYARLPPRATNCRK [RPL40A] this time
3.71

Proceed to VEETEVPTVPPSQSEEQ [MED4]
2.69

Would you kindly repeat that for FSEGTSADREIQRTLME [RPT4] ?
3.46

Continue with GSFKYITARSAFVEFGA [SWP82]
3.11

Try this sequence too: LKNVNKRAFENFKKFNE [SMC3]
1.95

Follow-up item: GFNMKKITTSTEDQKVT [SRP68]
2.67
